Data provenance: PubChem BioAssay (NCI)

Each entry below carries its reported TGI.
# Test system: TK-10 renal
# assay_text: NCI tumour cell line growth inhibition, 48 h

# example entries with known answers
[
  {
    "molecule": "Cc1ccc2c(c1)C(=O)C1(C2)Cc2c(C)cccc2C1=O (stereo not given)",
    "measured_result": "> 100 µM"
  },
  {
    "molecule": "NC(=S)N/N=C/c1ccc(OC(=O)COc2ccc(Cl)cc2)cn1",
    "measured_result": "> 100 µM"
  },
  {
    "molecule": "CN1CCCC2C(c3ccccc3)C(C3=NCCCC3)C(c3ccccc3)CC21 (stereo not given)",
    "measured_result": "> 100 µM"
  }
]

query: Entry CC(=O)O[C@H]1C(=O)[C@@]2(C)[C@H]([C@H](OC(=O)c3ccccc3)[C@]3(O)C[C@H](OC(=O)[C@H](O)[C@@H](NC(=O)c4ccc(N)cc4)c4ccccc4)C(C)=C1C3(C)C)[C@]1(OC(C)=O)CO[C@@H]1C[C@@H]2O : reported TGI = ?
result: > 50 µM

query: Entry O=C(CCl)Nc1ccc(Cl)cc1 : reported TGI = ?
result: 5.75 µM

query: Entry COC(=O)C1=NC(=S)NC(c2ccccc2)C1c1nc2ccccc2s1 (stereo not given) : reported TGI = ?
result: > 100 µM
